# MEASUREMENT NOTES: in vitro
# CONDITION SET: human, microsomes, pH 7.4
MEASUREMENT LABEL: microsomal CLint at 0.1 µM

Look up and report measured microsomal CLint at 0.1 µM for this entry: `CC(=O)c1c(C)n(-c2ccc(N3CCCCC3)cc2)c2ccc(O)c(CN3CCCCC3)c12`
66.9 µL/min/mg

* * *

# MEASUREMENT NOTES: liver microsome stability assay
# CONDITION SET: human, liver microsomes, pH 7.4
MEASUREMENT LABEL: half-life at 0.1 µM (min)
Return type: number; implicit unit min.

Output measured half-life at 0.1 µM for this item: `CC(=O)c1c(C)n(-c2ccc(N3CCCCC3)cc2)c2ccc(O)c(CN3CCCCC3)c12`
20.7
